meta.source: patent US11472803B2

# SYSTEM_NAME: human M2 receptor (Homo sapiens)
# Construct: expressed in transfected cells; host or cells: CHO-DUKX (CHO-DUKX-M2-GIRK)
# Sequence (P08172 1-466): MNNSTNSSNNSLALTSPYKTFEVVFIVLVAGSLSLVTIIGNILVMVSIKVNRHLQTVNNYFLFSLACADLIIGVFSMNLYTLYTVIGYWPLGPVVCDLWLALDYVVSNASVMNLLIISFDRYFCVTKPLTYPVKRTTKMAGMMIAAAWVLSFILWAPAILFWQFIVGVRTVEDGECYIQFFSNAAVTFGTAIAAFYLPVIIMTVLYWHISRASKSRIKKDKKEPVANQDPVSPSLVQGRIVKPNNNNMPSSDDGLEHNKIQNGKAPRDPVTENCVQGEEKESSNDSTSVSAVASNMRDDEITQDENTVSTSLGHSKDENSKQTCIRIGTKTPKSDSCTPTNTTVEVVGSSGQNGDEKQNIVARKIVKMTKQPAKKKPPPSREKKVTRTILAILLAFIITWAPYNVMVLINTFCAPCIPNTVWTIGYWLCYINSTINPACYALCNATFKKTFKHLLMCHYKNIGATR
# TEST_METHOD_NOTES: Functional M2-GIRK1/4 activation test: allosteric potency (EC50) and efficiency at EC20 acetylcholine
# Assay type: cell-based
# DETAILS: CHO-DUKX-M2-GIRK cells; voltage-sensitive dye; acetylcholine at EC20; in some cases mean of two or more determinations
OUTCOME_MEASURE: EC50 (nM)

>  <COMPOUND>
CCC(C)(CC)NC(=O)c1cn(-c2c(F)cc(F)cc2F)c2nc(N3C[C@@H](O)[C@@H](O)C3)c(F)cc2c1=O

>  <EC50 (nM)>
2.8

$$$$
>  <COMPOUND>
CCC(NC(=O)c1cn(-c2c(F)cc(F)cc2F)c2nc(N3CC[C@H](O)C3)c(F)cc2c1=O)C(C)C (mixture of isomers) [Example 116]

>  <EC50 (nM)>
3.5

$$$$
>  <COMPOUND>
C[C@@H](NC(=O)c1cn(-c2c(F)cc(F)cc2F)c2nc(N3C[C@@H](O)[C@H](O)C3)c(F)cc2c1=O)C(F)(F)F

>  <EC50 (nM)>
16.5

$$$$
>  <COMPOUND>
CCC(NC(=O)c1cn(-c2c(F)cc(F)cc2F)c2nc(N3CC[C@H](O)C3)c(F)cc2c1=O)C(C)C (single isomer, unassigned) [Example 118]

>  <EC50 (nM)>
2.8

$$$$
>  <COMPOUND>
CC(NC(=O)c1cn(-c2c(F)cc(F)cc2F)c2nc(N3CCC[C@@H]3CO)c(F)cc2c1=O)C(F)(F)C(F)(F)F (single isomer, unassigned)

>  <EC50 (nM)>
4.5

$$$$
>  <COMPOUND>
CC[C@H](NC(=O)c1cn(-c2c(F)cc(F)cc2Cl)c2nc(N3C[C@@H](O)[C@H](O)C3)c(F)cc2c1=O)C(F)(F)F (single isomer, unassigned) [Example 48]

>  <EC50 (nM)>
1.8

$$$$
>  <COMPOUND>
C[C@H](NC(=O)c1cn(-c2c(F)cc(F)cc2F)c2nc(N3C[C@@H](O)[C@H](O)C3)c(F)cc2c1=O)C1CC1

>  <EC50 (nM)>
13

$$$$
>  <COMPOUND>
CC(NC(=O)c1cn(-c2c(F)cc(F)cc2F)c2nc(N3C[C@@H](O)[C@H](O)C3)c(Br)cc2c1=O)C(F)(F)C(F)(F)F (stereo partly shown)

>  <EC50 (nM)>
3.7

$$$$

a = O=C(NC(C(F)(F)F)C(F)(F)F)c1cn(-c2ncc(F)cc2F)c2nc(N3C[C@@H](O)[C@H](O)C3)c(F)cc2c1=O
b = CC(C)[C@@H](C)NC(=O)c1cn(-c2c(F)cc(F)cc2F)c2nc(N3C[C@@H](O)[C@@H](O)C3)c(F)cc2c1=O
Challenge: Pick one: a or b . Which has the bigger EC50 number? Give the chosen item's label as your response.
Response given: b
